protocol: chemical genetic growth profiling, strain panel (AID 1159580);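 note: tested at 20 µM; growth read once vehicle control cultures reached saturation at 30 °C; 1 = growth at the plate median or of vehicle wells; lower values mean less growth of the strain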
measurement_setup: S. cerevisiae deletion strains, growth OD, locus YCL069W, strain vba3, hits give low values
Screen size: about 5,500 compounds; about 2,000 (36%) were called active. Not shown: some 18% with an inconclusive outcome. The list shows a part of the results.
For each entry below, report its normalized growth value.
I only need the number, thanks.

[Q] // lookup normalized growth for `CC[C@@H](CO)NCCN[C@@H](CC)CO`
[A] 1

[Q] Note, next up: `CCCCOc1ccc(CC(=O)NO)cc1`
[A] 0.973

[Q] Note, next up: `CCOC(=O)c1ncn2c1CN(C)C(=O)c1cc(F)ccc1-2`
[A] 1.01

[Q] Note, next up: `COc1c2c(c(CC=C(C)C)c3oc(=O)c(-c4ccc(O)cc4)c(O)c13)OC(C)(C)C=C2`
[A] 0.812

[Q] Note, next up: `COc1ccc2c(c1)OC[C@@H](Cc1ccc(OC)c(OC)c1)[C@@H]2O`
[A] 0.996

[Q] Note, next up: `Cc1cc(C(C)(C)CC(C)(C)C)ccc1OCCOCC[N+](C)(C)Cc1ccccc1`
[A] 0.0588

[Q] Note, next up: `CCCCCCCCCCCCC[N+](C)(C)Cc1ccccc1`
[A] 0.0638

[Q] Note, next up: CN1CCCC(n2nc(Cc3ccc(Cl)cc3)c3ccccc3c2=O)CC1 (configuration not stated)
[A] 0.988

[Q] Note, next up: `C/C=C(/C(=C/C)c1ccc(O)cc1)c1ccc(O)cc1`
[A] 0.953

[Q] Note, next up: `O=C(/C=C/C=C/c1ccc2c(c1)OCO2)N1CCCCC1`
[A] 0.904

[Q] Note, next up: C=C1CC[C@H](O)C/C1=C/C=C1\CCC[C@]2(C)C([C@H](C)/C=C/[C@H](C)C(C)C)CC[C@@H]12 (some centres not stated)
[A] 1.01

[Q] Note, next up: `COc1ccc2c(c1)OC[C@@H](Cc1ccc(OC)c(OC)c1)[C@H]2O`
[A] 1.01

* * *

protocol: chemical genetic growth profiling, strain panel (AID 1159580);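 note: tested at 20 µM; growth read once vehicle control cultures reached saturation at 30 °C; 1 = growth at the plate median or of vehicle wells; lower values mean less growth of the strain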
measurement_setup: S. cerevisiae deletion strains, growth OD, locus YHR094C, strain hxt1, hits give low values
Out of some 5,500 compounds screened, about 2,000 (36%) were called active. About 18% were inconclusive and are not listed. The list shows a part of the results.
For each entry below, report its normalized growth value.
I only need the number, thanks.

[Q] // lookup normalized growth for O=C(O)C1CC([C@@H]2CCCCN2)CN2CCCCC12 (stereo not given in full)
[A] 0.978

[Q] Note, next up: `C=CC(C)(C)c1c2c(c(O)c3c(=O)c4ccc(O)c(O)c4oc13)C=CC(C)(C)O2`
[A] 1.01

[Q] Note, next up: COC(=O)C1[C@H]2C[C@H]3c4[nH]c5ccccc5c4CCN3C[C@@H]2CC[C@@H]1O (stereo not given in full)
[A] 1.01

[Q] Note, next up: `COc1c(O)cc2oc3cc(O)c(CC=C(C)C)c(O)c3c(=O)c2c1CC=C(C)C`
[A] 0.901

[Q] Note, next up: NC[C@@H]1O[C@H](O[C@@H]2[C@@H](CO)OC(O[C@@H]3[C@@H](O)[C@H](N)C[C@H](N)[C@H]3OC3O[C@H](CN)[C@@H](O)[C@H](O)[C@H]3N)[C@@H]2O)[C@H](N)[C@@H](O)[C@@H]1O (stereo not given in full)
[A] 1.01

[Q] Note, next up: `CCC1(c2ccccc2)C(=O)NCNC1=O`
[A] 0.995

[Q] Note, next up: `COc1cc(O)c2c(=O)cc(C)oc2c1CC=C(C)C`
[A] 0.941

[Q] Note, next up: CCC1(C)CC(=O)NC1=O (stereo not given)
[A] 1.02

[Q] Note, next up: `Cc1cc(=O)c2c(O)cc(O)c(C)c2o1`
[A] 0.983

[Q] Note, next up: `Cc1cc(=O)c2c(O)c(C)c(O)cc2o1`
[A] 0.984

* * *

protocol: chemical genetic growth profiling, strain panel (AID 1159580);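 note: tested at 20 µM; growth read once vehicle control cultures reached saturation at 30 °C; 1 = growth at the plate median or of vehicle wells; lower values mean less growth of the strain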
measurement_setup: S. cerevisiae deletion strains, growth OD, locus YLR133W, strain CKI1
In all, about 5,500 compounds went through this assay and about 2,000 (36%) were called active. About 18% were inconclusive and are not listed. No stated cut-off is given here; in the data, active means normalized growth mostly below about 0.91 (no sharp cut-off); inconclusive means no clear call, values can overlap the other calls; inactive means mostly above about 0.92. The list shows a part of the results.
Output constraint: value belongs to label 1 = active, label 0 = inactive

[Q] // return assay outcome for `Cn1c([N+](=O)[O-])cnc1/C=C(\C#N)C(=O)Nc1ccc(F)cc1`
[A] label 1

[Q] Note, next up: `Cc1c(Cl)cccc1NC(=S)N1CCCN(c2ccc(C(F)(F)F)cc2[N+](=O)[O-])CC1`
[A] label 0

[Q] Note, next up: `O=C(Oc1cc(Cl)c(Cl)cc1Cl)C1c2ccccc2Oc2ccccc21`
[A] label 0

[Q] Note, next up: `N#C/C(=N/Nc1ccccc1Cl)S(=O)(=O)c1ccc(Cl)cc1`
[A] label 0

[Q] Note, next up: `O=C(CCN1CCCCC1)c1ccc(-c2ccccc2)cc1`
[A] label 0

[Q] Note, next up: `NC(N)=Nc1nc(-c2cc(Cl)sc2Cl)cs1`
[A] label 0

[Q] Note, next up: `NCCCN=c1ccc2c3c1c(O)c1c(O)ccc(=O)c1c3[nH]n2CCNCCO`
[A] label 0

[Q] Note, next up: `CC(C)(C)C1=NN(c2nc3ccc(Cl)cc3s2)C(=O)C1`
[A] label 1

[Q] Note, next up: `C=CC(=O)N1CCc2cc([N+](=O)[O-])ccc21`
[A] label 1

[Q] Note, next up: `COc1ccc(NC(=O)O/N=C(/N)c2ccc(Oc3c(Cl)cncc3Cl)cc2)cc1`
[A] label 0

[Q] Note, next up: Cc1ccccc1C(=O)N1CCc2c([nH]c3ccccc23)C1C(F)(F)F (configuration not stated)
[A] label 0

[Q] Note, next up: `Cc1c(C(=O)N2CCCCC2)cc(-c2ccccc2)n1-c1ccccc1`
[A] label 0

* * *

protocol: chemical genetic growth profiling, strain panel (AID 1159580);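 note: tested at 20 µM; growth read once vehicle control cultures reached saturation at 30 °C; 1 = growth at the plate median or of vehicle wells; lower values mean less growth of the strain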
measurement_setup: S. cerevisiae deletion strains, growth OD, locus YOR070C, strain gyp1
About 2,000 (36%) of roughly 5,500 compounds were called active. Not shown: some 18% with an inconclusive outcome. No stated cut-off is given here; in the data, active means normalized growth mostly below about 0.91 (no sharp cut-off); inconclusive means no clear call, values can overlap the other calls; inactive means mostly above about 0.92. The list shows a part of the results.
Output constraint: value belongs to TRUE for active, FALSE for inactive

[Q] // return assay outcome for `COc1cc(OC)c2c(c1)O[C@H](c1ccc(OC)c(OC)c1)[C@@H](O)C2`
[A] FALSE

[Q] Note, next up: `CCCCCCCCCCCCC[N+](C)(C)Cc1ccccc1`
[A] TRUE

[Q] Note, next up: C[N+](C)(C)CCOP(=O)([O-])OP(=O)(O)OC[C@H]1OC(n2ccc(N)nc2=O)[C@H](O)[C@@H]1O (stereo partly specified)
[A] FALSE

[Q] Note, next up: `O=C(/C=C/c1ccccc1)O[C@H]1C[C@@H](O)[C@]2(O)C=CO[C@@H](O[C@@H]3O[C@H](CO)[C@@H](O)[C@H](O)[C@H]3O)[C@H]12`
[A] FALSE

[Q] Note, next up: CCc1ccc(CCOc2ccc(CC3SC(=O)NC3=O)cc2)nc1 (stereo unspecified)
[A] FALSE

[Q] Note, next up: `COc1ccc2c(c1)[C@@]1(C)CCC(=O)C[C@H]1CC2`
[A] FALSE

[Q] Note, next up: CCC1(c2ccc(N)cc2)CCC(=O)NC1=O (stereo unspecified)
[A] FALSE

[Q] Note, next up: CC(C(=O)O)c1ccc2c(c1)[nH]c1ccc(Cl)cc12 (stereo unspecified)
[A] FALSE

[Q] Note, next up: NCC1CCCCC1CC(=O)O (stereo unspecified)
[A] FALSE

[Q] Note, next up: COC(=O)C1=COC(OC2OC(CO)C(O)C(O)C2O)C2C(C)CC(=O)C12O (stereo unspecified)
[A] FALSE

[Q] Note, next up: `O=C(/C=C/C=C/c1ccc2c(c1)OCO2)N1CCCCC1`
[A] FALSE

[Q] Note, next up: CN1CCCC(n2nc(Cc3ccc(Cl)cc3)c3ccccc3c2=O)CC1 (stereo unspecified)
[A] FALSE

[Q] Note, next up: CCC1(C)CC(=O)NC1=O (stereo unspecified)
[A] FALSE

[Q] Note, next up: `COc1c2c(c(CC=C(C)C)c3oc(=O)c(-c4ccc(O)cc4)c(O)c13)OC(C)(C)C=C2`
[A] TRUE

[Q] Note, next up: CO[C@H]1C[C@H](O[C@H]2[C@H](C)[C@@H](OC3O[C@H](C)C[C@H](N(C)C)[C@H]3O)[C@@H](C)C[C@]3(CO3)C(=O)[C@H](C)[C@@H](O)[C@@H](C)[C@@H](C)OC(=O)[C@@H]2C)O[C@@H](C)[C@@H]1O (stereo partly specified)
[A] FALSE

[Q] Note, next up: `Cc1cc(=O)c2c(O)c(C)c(O)cc2o1`
[A] FALSE

[Q] Note, next up: CC(=O)O[C@@](C)(CCC=C(C)C)C1CC=C(C)CC1 (stereo partly specified)
[A] FALSE

[Q] Note, next up: `Cc1ccc2c(c1)CC[C@H]1CC(=O)CC[C@]21C`
[A] FALSE

[Q] Note, next up: `Cc1cc(C(C)(C)CC(C)(C)C)ccc1OCCOCC[N+](C)(C)Cc1ccccc1`
[A] TRUE

[Q] Note, next up: `COC(=O)COc1cc(Cl)c(Cl)cc1Cl`
[A] FALSE

[Q] Note, next up: `COc1ccc2c(c1)OC[C@@H](Cc1ccc(OC)c(OC)c1)[C@H]2O`
[A] FALSE

[Q] Note, next up: COc1cc2c(cc1OC)C(=O)C(CC1CCN(Cc3ccccc3)CC1)C2 (stereo unspecified)
[A] FALSE

[Q] Note, next up: COc1cccc2c1CCC1CC(=O)CCC21C (stereo unspecified)
[A] FALSE

[Q] Note, next up: `COc1c(O)cc2oc3cc(O)c(CC=C(C)C)c(O)c3c(=O)c2c1CC=C(C)C`
[A] FALSE

[Q] Note, next up: `CCCCCCCCCCCCCCCCOP(=O)([O-])OCC[N+](C)(C)C`
[A] TRUE

[Q] Note, next up: CC1(C)S[C@@H]2[C@H](NC(=O)[C@H](NC(=O)N3CCNC3=O)c3ccccc3)C(=O)N2C1C(=O)O (stereo partly specified)
[A] FALSE
